- assayed.target: B-Raf delta1-415 (Homo sapiens)
- test.details: B-Raf kinase inhibition (MAPH filter plate, 33P-ATP, MEK1 substrate)
- condition.details: read-out: Biochemical IC50 B-Raf
quantity.measured: IC50

query_smiles=COCCOn1c(=O)c(-c2c(Cl)cccc2Cl)cc2cnc(Nc3cc(C(=O)NCCN4CCCC4)n(C)c3)nc21 observed_result="< 500 nM"
query_smiles=COn1c(=O)c(-c2c(Cl)cccc2Cl)cc2cnc(Nc3ccc(N4CCOCC4)cc3)nc21 observed_result="< 100 nM"
query_smiles=Cn1cc(Nc2ncc3cc(-c4c(Cl)cccc4Cl)c(=O)n(OC[C@@H](O)CO)c3n2)cc1C(=O)NCCN1CCCC1 observed_result="< 500 nM"
query_smiles=COn1c(=O)c(-c2c(F)cccc2Cl)cc2cnc(Nc3ccc(N4CCNCC4)c(CO)c3)nc21 observed_result="< 100 nM"
query_smiles=COn1c(=O)c(-c2c(Cl)cccc2Cl)cc2cnc(Nc3ccc(Cn4cnnc4)cc3)nc21 observed_result="< 500 nM"
query_smiles=COn1c(=O)c(-c2cc(NC(=O)c3cccc(Cl)c3)ccc2Cl)cc2cnc(Nc3ccccc3)nc21 observed_result="> 1000 nM"
query_smiles=COn1c(=O)c(-c2c(F)cccc2Cl)cc2cnc(Nc3ccc(N4CCNCC4)c(C#N)c3)nc21 observed_result="< 100 nM"

---

- assayed.target: B-Raf delta1-415 (Homo sapiens)
- test.details: B-Raf kinase inhibition (MAPH filter plate, 33P-ATP, MEK1 substrate)
- condition.details: read-out: Biochemical IC50 B-Raf
pIC50: −log10 of the molar value.
Listing of recorded pIC50 by entry.
quantity.measured: pIC50

compound="COn1c(=O)c(-c2c(Cl)cccc2Cl)cc2cnc(Nc3cc(C(=O)NCCN(C)C)n(C)c3)nc21 [Compound 67]" observed_result="> 7.00"
compound="COn1c(=O)c(-c2c(Cl)cccc2Cl)cc2cnc(Nc3cccc(CN4CCCC4)c3)nc21 [Compound 21]" observed_result="> 6.30"
compound="O=c1c(-c2c(F)cccc2Cl)cc2cnc(Nc3ccc(N4CCOCC4)cc3)nc2n1OCc1cccnc1 [Compound 132]" observed_result="> 7.00"
compound="COn1c(=O)c(-c2c(Cl)cccc2Cl)cc2cnc(Nc3ccncn3)nc21 [Compound 135]" observed_result="> 6.30"
compound="NCCCCOn1c(=O)c(-c2c(Cl)cccc2Cl)cc2cnc(Nc3ccccc3)nc21 [Compound 34]" observed_result="> 6.00"
compound="COn1c(=O)c(-c2c(Cl)cccc2Cl)cc2cnc(Nc3ccc(OCCN4CC[C@H](O)C4)cc3)nc21 [Compound 92]" observed_result="> 7.00"
compound="COn1c(=O)c(-c2c(F)cccc2Cl)cc2cnc(Nc3cc(C(=O)N4CCOCC4)n(C)c3)nc21 [Compound 197]" observed_result="> 6.30"
compound="COn1c(=O)c(-c2ccccc2)cc2cnc(Nc3cccc(CO)c3)nc21 [Compound 43]" observed_result="> 5.30"

---

- assayed.target: C-Raf Raf-1 (truncated), active (Homo sapiens, UniProt P04049, Y340D/Y341D)
- Sequence (P04049 306-648 Y340D/Y341D): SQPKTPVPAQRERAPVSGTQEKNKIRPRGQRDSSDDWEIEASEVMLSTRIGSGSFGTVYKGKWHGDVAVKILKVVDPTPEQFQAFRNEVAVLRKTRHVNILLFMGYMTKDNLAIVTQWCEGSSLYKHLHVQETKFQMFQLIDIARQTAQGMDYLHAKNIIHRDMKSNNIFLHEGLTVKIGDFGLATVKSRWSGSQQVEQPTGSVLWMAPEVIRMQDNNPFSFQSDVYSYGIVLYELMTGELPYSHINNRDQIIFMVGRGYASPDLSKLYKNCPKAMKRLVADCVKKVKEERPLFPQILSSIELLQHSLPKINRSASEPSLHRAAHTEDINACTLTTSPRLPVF
- test.details: C-Raf kinase inhibition (MAPH assay / IMAP assay)
- condition.details: read-out: Biochemical IC50 C-Raf
Listing of recorded IC50 by entry.
quantity.measured: IC50

compound="COc1cccc(Cl)c1-c1cc2cnc(Nc3ccc(N4CCN(C)CC4)cc3)nc2n(OC)c1=O [Compound 39]" quantity_measured=IC50 observed_result="< 100 nM"
compound="COn1c(=O)c(-c2cc(NC(C)=O)ccc2Cl)cc2cnc(Nc3ccccc3)nc21 [Compound 59]" quantity_measured=IC50 observed_result="< 100 nM"
compound="COn1c(=O)c(-c2ccc(Cl)c(Cl)c2)cc2cnc(Nc3cccc(S(N)(=O)=O)c3)nc21 [Compound 64]" quantity_measured=IC50 observed_result="< 500 nM"
compound="COn1c(=O)c(-c2c(Cl)cccc2Cl)cc2cnc(Nc3cccc(S(N)(=O)=O)c3)nc21 [Compound 4]" quantity_measured=IC50 observed_result="< 100 nM"
compound="CN1CCN(c2ccc(Nc3ncc4cc(-c5c(F)cccc5Cl)c(=O)n(OCC5CC5)c4n3)cc2)CC1 [Compound 52]" quantity_measured=IC50 observed_result="< 100 nM"

---

Listing of recorded IC50 by entry.
- assayed.target: C-Raf Raf-1 (truncated), active (Homo sapiens, UniProt P04049, Y340D/Y341D)
- test.details: C-Raf kinase inhibition (MAPH assay / IMAP assay)
- condition.details: read-out: Biochemical IC50 C-Raf
quantity.measured: IC50

query_smiles=COn1c(=O)c(-c2c(Cl)cccc2Cl)cc2cnc(Nc3cccc(S(=O)(=O)CCO)c3)nc21 observed_result="< 100 nM"
query_smiles=COn1c(=O)c(-c2cc(NC(=O)c3ccccc3)ccc2Cl)cc2cnc(Nc3ccc(N4CCN(C)CC4)cc3)nc21 observed_result="< 100 nM"
query_smiles=COn1c(=O)c(-c2c(Cl)cccc2Cl)cc2cnc(Nc3cccc(CO)c3)nc21 observed_result="< 100 nM"
query_smiles=COc1cccc(Nc2ncc3cc(-c4ccccc4Cl)c(=O)n(OC)c3n2)c1 observed_result="< 100 nM"
query_smiles=COc1ccccc1-c1cc2cnc(Nc3ccc(OCCN(C)C)cc3)nc2n(OC)c1=O observed_result="< 1000 nM"
query_smiles=COn1c(=O)c(-c2c(Cl)cccc2Cl)cc2cnc(Nc3cc(C(=O)O)n(C)c3)nc21 observed_result="< 100 nM"
query_smiles=COc1ccc(OC)c(-c2cc3cnc(Nc4cccc(CO)c4)nc3n(OC)c2=O)c1 observed_result="< 100 nM"
query_smiles=COCCOn1c(=O)c(-c2ccccc2Cl)cc2cnc(Nc3ccccc3)nc21 observed_result="< 100 nM"
query_smiles=COn1c(=O)c(-c2ccccc2)cc2cnc(Nc3cccc(CO)c3)nc21 observed_result="< 100 nM"
query_smiles=COc1cccc(Nc2ncc3cc(-c4c(Cl)cccc4Cl)c(=O)n(OCCO)c3n2)c1 observed_result="< 100 nM"
query_smiles=COn1c(=O)c(-c2ccc(Cl)cc2Cl)cc2cnc(Nc3ccc(N4CCN(C)CC4)cc3)nc21 observed_result="< 100 nM"
query_smiles=CNCCOn1c(=O)c(-c2c(Cl)cccc2Cl)cc2cnc(Nc3cccc(OC)c3)nc21 observed_result="< 500 nM"
query_smiles=COn1c(=O)c(-c2c(Cl)cccc2Cl)cc2cnc(Nc3cc(CO)ccc3C)nc21 observed_result="< 100 nM"
query_smiles=COn1c(=O)c(-c2cc(NC(=O)C(C)C)ccc2Cl)cc2cnc(Nc3ccccc3)nc21 observed_result="< 100 nM"
query_smiles=COn1c(=O)c(-c2cc(NC(=O)c3cccc(C(F)(F)F)c3)ccc2Cl)cc2cnc(Nc3ccccc3)nc21 observed_result="< 500 nM"
query_smiles=COn1c(=O)c(-c2c(F)cccc2Cl)cc2cnc(Nc3ccc(OCCN(C)C)cc3)nc21 observed_result="< 100 nM"

---

- assayed.target: B-Raf delta1-415 (Homo sapiens, UniProt P15056)
- Sequence (P15056 416-766): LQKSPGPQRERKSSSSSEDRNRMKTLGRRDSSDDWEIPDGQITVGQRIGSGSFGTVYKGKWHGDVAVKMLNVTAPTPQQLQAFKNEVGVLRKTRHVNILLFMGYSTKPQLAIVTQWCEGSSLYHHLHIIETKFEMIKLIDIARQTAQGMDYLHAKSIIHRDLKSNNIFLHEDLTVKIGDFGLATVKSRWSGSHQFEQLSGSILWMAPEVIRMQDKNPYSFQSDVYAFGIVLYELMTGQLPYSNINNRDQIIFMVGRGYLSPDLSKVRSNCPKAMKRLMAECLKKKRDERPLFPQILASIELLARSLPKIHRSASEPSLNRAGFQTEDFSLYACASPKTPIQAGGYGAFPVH
- test.details: B-Raf kinase inhibition (MAPH filter plate, 33P-ATP, MEK1 substrate)
- condition.details: read-out: Biochemical IC50 B-Raf
pIC50: −log10 of the molar value.
quantity.measured: pIC50

compound=O=c1c(-c2c(F)cccc2Cl)cc2cnc(Nc3ccc(N4CCNCC4)cc3)nc2n1OCC1CCOCC1 observed_result="> 7.00"
compound=CCCN1CCN(c2ccc(Nc3ncc4cc(-c5c(Cl)cccc5Cl)c(=O)n(OC)c4n3)cc2)CC1 observed_result="> 7.00"
compound=COn1c(=O)c(-c2c(Cl)cccc2Cl)cc2cnc(Nc3ccc(CN4CCC[C@H]4CO)cc3)nc21 observed_result="> 6.30"
compound=COn1c(=O)c(-c2c(Cl)cccc2Cl)cc2cnc(Nc3ccc(CN4CCOCC4)cc3)nc21 observed_result="> 6.30"
compound=COCCOn1c(=O)c(-c2c(Cl)cccc2Cl)cc2cnc(Nc3cc(C(=O)N(C)CCOC)n(C)c3)nc21 observed_result="> 6.30"
compound=COn1c(=O)c(-c2c(Cl)cccc2Cl)cc2cnc(Nc3cc(CO)ccc3F)nc21 observed_result="< 6.00"
compound=COn1c(=O)c(-c2c(Cl)cccc2Cl)cc2cnc(Nc3ccc(C(F)(F)F)c(Cl)c3)nc21 observed_result="< 6.00"
compound=CNCCOn1c(=O)c(-c2c(Cl)cccc2Cl)cc2cnc(Nc3cccc(OC)c3)nc21 observed_result="> 7.00"
compound=COn1c(=O)c(-c2c(F)cccc2Cl)cc2cnc(Nc3ccc(N4CCNCC4)c(F)c3)nc21 observed_result="> 7.00"
compound=COCCOn1c(=O)c(-c2ccccc2Cl)cc2cnc(Nc3ccccc3)nc21 observed_result="> 6.30"
compound=COc1cccc(Nc2ncc3cc(-c4ccccc4Cl)c(=O)n(OC)c3n2)c1 observed_result="> 6.00"
compound=COn1c(=O)c(-c2c(Cl)cccc2Cl)cc2cnc(Nc3ccc(CN4CCC4)cc3)nc21 observed_result="> 6.30"
compound=COn1c(=O)c(-c2c(Cl)cccc2Cl)cc2cnc(Nc3cc(C(=O)N(C)CCOC(=O)c4ccccc4)n(C)c3)nc21 observed_result="> 6.30"
compound="NCCCCOn1c(=O)c(-c2c(Cl)cccc2Cl)cc2cnc(Nc3ccccc3)nc21 [Compound 66]" observed_result="> 7.00"
compound=CN1CCN(c2ccc(Nc3ncc4ccc(=O)n(OC(C)(C)C)c4n3)cc2)CC1 observed_result="< 6.00"
compound=CCN(CC)S(=O)(=O)c1cccc(Nc2ncc3cc(-c4c(Cl)cccc4Cl)c(=O)n(OC)c3n2)c1 observed_result="< 6.00"
